This collection of values is drawn from patent US20250215029A1.

I'd appreciate it if you could supply IC50 values for the items below.
Molecular target: Recombinant STAT3 protein (STAT3 (G127-I722)) (Homo sapiens, UniProt P40763)
Construct: Recombinant STAT3 protein (STAT3 (G127-I722))
Sequence (P40763 127-722): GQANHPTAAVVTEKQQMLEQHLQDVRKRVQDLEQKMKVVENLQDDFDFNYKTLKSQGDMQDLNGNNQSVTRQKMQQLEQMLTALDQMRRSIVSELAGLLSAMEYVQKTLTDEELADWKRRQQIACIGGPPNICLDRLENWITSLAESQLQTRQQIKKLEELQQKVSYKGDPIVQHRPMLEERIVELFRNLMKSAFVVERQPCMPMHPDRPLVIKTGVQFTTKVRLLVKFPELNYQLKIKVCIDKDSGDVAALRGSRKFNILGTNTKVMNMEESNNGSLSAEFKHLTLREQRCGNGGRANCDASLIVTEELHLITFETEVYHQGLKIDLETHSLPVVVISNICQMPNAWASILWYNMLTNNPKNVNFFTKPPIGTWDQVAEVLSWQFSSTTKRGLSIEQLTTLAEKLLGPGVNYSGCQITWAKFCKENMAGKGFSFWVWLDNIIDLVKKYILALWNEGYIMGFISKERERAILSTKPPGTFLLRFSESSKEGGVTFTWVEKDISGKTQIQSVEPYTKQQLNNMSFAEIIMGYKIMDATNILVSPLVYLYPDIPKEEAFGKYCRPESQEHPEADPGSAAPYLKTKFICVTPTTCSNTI
Experiment: STAT3 Fluorescence Polarization (FP) Assay
Assay type: binding
Settings: STAT3 (G127-I722) 25 nM, probe 5-FAM-GpYLPQTV-NH2 2 nM, 45-minute incubation; read-out: STAT3 (FP assay IC50 class)

**Q:** Supply reported IC50 belonging to this compound: O=C(N[C@H]1CCCC[C@H]2CC[C@@H](C(=O)N3C[C@@H](c4ccccc4)CC34CC4)N2C1=O)c1cc2cc(C(F)(F)P(=O)(O)O)ccc2s1 (single isomer, unassigned) [Compound 890]
**A:** 1000 to 10000 nM

**Q:** Supply reported IC50 belonging to this compound: N#CC1CN(C(=O)[C@@H]2CC[C@@H]3CC[C@H](NC(=O)c4cc5cc(C(F)(F)P(=O)(O)O)ccc5s4)C(=O)N32)C[C@@H]1c1ccccc1 (relative stereo)
**A:** 1000 to 10000 nM

**Q:** Supply reported IC50 belonging to this compound: O=C(N[C@H]1CCC[C@H]2CC[C@@H](C(=O)N3CC(c4cnccc4N4C5COCC4C5)C3)N2C1=O)c1cc2cc(C(F)P(=O)(O)O)ccc2s1 (some centres unmarked)
**A:** < 100 nM

**Q:** Supply reported IC50 belonging to this compound: O=C(N[C@H]1CCC[C@H]2CC[C@@H](C(=O)N3CC(c4cccnc4)C3)N2C1=O)c1cc2nc(CP(=O)(O)O)ccc2s1
**A:** 1000 to 10000 nM

**Q:** Supply reported IC50 belonging to this compound: O=C(N[C@H]1CCC[C@H]2CC[C@@H](C(=O)N3C[C@@H](c4cccnc4)CC34CC4)N2C1=O)c1cc2cc([C@@H](F)P(=O)(O)O)ccc2s1 (single isomer, unassigned)
**A:** 1000 to 10000 nM

**Q:** Supply reported IC50 belonging to this compound: O=C(N[C@H]1CCC[C@H]2CC[C@@H](C(=O)N3CC(c4cnccc4F)C3)N2C1=O)c1cc2cc(C(F)P(=O)(O)O)ccc2s1 (some centres unmarked)
**A:** < 100 nM

**Q:** Supply reported IC50 belonging to this compound: CC(=O)N1C[C@H](NC(=O)[C@@H]2CC[C@@H]3CCC[C@H](NC(=O)c4cc5cc(CP(=O)(O)O)ccc5s4)C(=O)N32)[C@@H](F)C1
**A:** 1000 to 10000 nM

**Q:** Supply reported IC50 belonging to this compound: N#Cc1cc(C2CN(C(=O)[C@@H]3CC[C@@H]4CCC[C@H](NC(=O)c5cc6cc(C(F)P(=O)(O)O)ccc6s5)C(=O)N43)C2)ccn1 (some centres unmarked)
**A:** < 100 nM

**Q:** Supply reported IC50 belonging to this compound: CCc1ccncc1C1CN(C(=O)[C@@H]2CC[C@@H]3CCC[C@H](NC(=O)c4cn5cc(CP(=O)(O)O)ccc5n4)C(=O)N32)C1
**A:** 1000 to 10000 nM

**Q:** Supply reported IC50 belonging to this compound: O=C(N[C@H]1CCC[C@H]2CC[C@@H](C(=O)N3CC(c4cccnc4)CC34CC4)N2C1=O)c1cc2cc(C(F)P(=O)(O)O)ccc2s1 (some centres unmarked)
**A:** 1000 to 10000 nM

**Q:** Supply reported IC50 belonging to this compound: O=C(N[C@H]1CCCC[C@H]2CC[C@@H](C(=O)N3Cc4cccnc4C3)N2C1=O)c1cc2cc(C(F)(F)P(=O)(O)O)ccc2s1
**A:** 100 to 1000 nM
